- MEASURED_TARGET: acylpeptide hydrolase (APEH) (Homo sapiens, UniProt P13798)
- Sequence (P13798 whole entry): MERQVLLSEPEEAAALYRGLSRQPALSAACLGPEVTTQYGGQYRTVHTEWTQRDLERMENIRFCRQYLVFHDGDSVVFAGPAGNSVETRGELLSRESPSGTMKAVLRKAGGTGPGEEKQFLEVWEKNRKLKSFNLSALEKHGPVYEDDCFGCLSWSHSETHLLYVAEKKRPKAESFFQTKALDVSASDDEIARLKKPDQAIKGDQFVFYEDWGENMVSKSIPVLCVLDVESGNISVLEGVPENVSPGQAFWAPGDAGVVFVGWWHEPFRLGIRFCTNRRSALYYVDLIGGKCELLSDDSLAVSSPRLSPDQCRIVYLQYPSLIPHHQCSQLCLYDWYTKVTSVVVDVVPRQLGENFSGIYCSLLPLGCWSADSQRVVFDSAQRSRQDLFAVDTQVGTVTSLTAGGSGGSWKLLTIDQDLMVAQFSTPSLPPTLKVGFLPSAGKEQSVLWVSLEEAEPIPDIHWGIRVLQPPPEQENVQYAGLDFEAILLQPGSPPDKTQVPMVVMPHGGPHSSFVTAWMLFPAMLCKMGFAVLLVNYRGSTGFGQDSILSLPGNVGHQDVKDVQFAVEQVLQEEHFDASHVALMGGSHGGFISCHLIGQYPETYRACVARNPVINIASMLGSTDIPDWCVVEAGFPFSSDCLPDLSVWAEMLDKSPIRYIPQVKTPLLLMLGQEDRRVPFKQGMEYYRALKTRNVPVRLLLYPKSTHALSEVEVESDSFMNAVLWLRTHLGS
- EXPERIMENT_DESCRIPTION: competitive ABPP with TAMRA-FP in human erythrocyte lysate and saponin-isolated parasite lysate; also intact erythrocytes
- Assay type: biochemical
MEASURE: IC50 (nM)
Number only, in nM; omit the unit.

Entry under test: CC(C)CC(O)(CC(C)C)c1cnn(C(=O)N2CCCC2)n1 . Its IC50 was 7.4
